System: 192522-019-R-J2-PDC complex tumor spheroid viability;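 further: spheroids exposed to drugs for seven days before reading; 100% = DMSO vehicle control viability in luminescence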
measurement notes: Anticancer human tumor 192522-019-R-J2-PDC patient-derived colon adenocarcinoma cell line growth inhibition [POLQ]
condition label: second compound 0.316 µM; first compound 0.1 µM; stronger effect = lower value
readout kind: viability, T/C (%)
Your answer should be a plain number; it is taken to be in %.

CNCc1ccc(-c2[nH]c3cc(F)cc4c3c2CCNC4=O)cc1 + Nc1ccc(C#CCN(C(=O)Cc2ncc(C(F)(F)F)cc2C(F)(F)F)c2ccc(F)cc2)nn1: 106

[Q] Consider the molecule CC[C@@]1(O)C(=O)OCc2c1cc1n(c2=O)Cc2cc3c(CN(C)C)c(O)ccc3nc2-1 + COC1C(OC(N)=O)C(O)C(Oc2ccc3c(O)c(NC(=O)c4ccc(O)c(CC=C(C)C)c4)c(=O)oc3c2C)OC1(C)C . State its measured viability, T/C.
[A] 58.1

[Q] Provide only the value of recorded viability, T/C for CCCS(=O)(=O)Nc1ccc(F)c(C(=O)c2c[nH]c3ncc(-c4ccc(Cl)cc4)cc23)c1F + Nc1ccc(C#CCN(C(=O)Cc2ncc(C(F)(F)F)cc2C(F)(F)F)c2ccc(F)cc2)nn1
[A] 98.7
